Give measured (IC50 CDK12 high ATP) to (Degradation DC50 CDK12) ratio for each item. Keep answers brief.
Assayed target: CDK12 (nuclear staining in CAL-120 cells) (Homo sapiens)
Construct: endogenous in cells; host or cells: CAL-120 human breast cancer cells (DSMZ ACC 459)
Sequence (Q9NYV4 whole entry): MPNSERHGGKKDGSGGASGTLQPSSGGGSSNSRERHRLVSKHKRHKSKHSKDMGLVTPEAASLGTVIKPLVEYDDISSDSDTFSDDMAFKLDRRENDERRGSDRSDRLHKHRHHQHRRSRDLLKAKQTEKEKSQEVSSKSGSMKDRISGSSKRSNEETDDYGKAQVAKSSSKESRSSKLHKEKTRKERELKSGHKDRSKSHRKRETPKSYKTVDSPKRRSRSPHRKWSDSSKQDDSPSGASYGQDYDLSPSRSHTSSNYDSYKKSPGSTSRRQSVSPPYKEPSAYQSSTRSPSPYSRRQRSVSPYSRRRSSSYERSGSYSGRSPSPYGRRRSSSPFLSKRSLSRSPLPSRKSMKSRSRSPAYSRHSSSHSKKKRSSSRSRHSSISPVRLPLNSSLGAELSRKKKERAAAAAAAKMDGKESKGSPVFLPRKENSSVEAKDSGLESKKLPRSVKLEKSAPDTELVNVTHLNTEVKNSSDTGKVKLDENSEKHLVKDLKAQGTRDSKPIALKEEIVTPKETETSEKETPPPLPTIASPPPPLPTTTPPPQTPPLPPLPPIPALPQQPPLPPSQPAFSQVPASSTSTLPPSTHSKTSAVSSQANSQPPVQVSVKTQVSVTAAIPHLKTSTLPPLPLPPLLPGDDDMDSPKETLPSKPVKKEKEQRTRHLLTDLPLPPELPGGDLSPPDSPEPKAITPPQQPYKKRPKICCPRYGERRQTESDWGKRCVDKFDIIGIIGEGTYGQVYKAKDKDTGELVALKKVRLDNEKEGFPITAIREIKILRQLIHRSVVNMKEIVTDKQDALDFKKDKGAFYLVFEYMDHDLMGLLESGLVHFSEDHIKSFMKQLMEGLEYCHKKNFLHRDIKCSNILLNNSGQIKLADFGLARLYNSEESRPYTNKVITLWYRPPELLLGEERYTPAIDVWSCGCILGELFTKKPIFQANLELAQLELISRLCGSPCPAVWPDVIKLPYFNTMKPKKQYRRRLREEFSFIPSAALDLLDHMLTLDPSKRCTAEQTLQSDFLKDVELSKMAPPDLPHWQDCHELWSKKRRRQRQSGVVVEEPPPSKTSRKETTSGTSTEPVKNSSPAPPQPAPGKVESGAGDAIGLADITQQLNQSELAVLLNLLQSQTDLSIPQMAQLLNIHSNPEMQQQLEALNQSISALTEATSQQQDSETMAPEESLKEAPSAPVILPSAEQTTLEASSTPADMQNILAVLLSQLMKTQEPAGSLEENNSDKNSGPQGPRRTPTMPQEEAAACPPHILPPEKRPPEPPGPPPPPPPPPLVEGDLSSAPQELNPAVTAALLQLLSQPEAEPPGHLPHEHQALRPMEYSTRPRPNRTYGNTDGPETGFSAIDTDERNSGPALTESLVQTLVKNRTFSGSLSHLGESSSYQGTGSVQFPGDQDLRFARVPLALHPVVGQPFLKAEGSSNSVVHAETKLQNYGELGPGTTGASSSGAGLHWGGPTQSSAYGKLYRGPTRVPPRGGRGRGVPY
Sequence (O75909 whole entry partner): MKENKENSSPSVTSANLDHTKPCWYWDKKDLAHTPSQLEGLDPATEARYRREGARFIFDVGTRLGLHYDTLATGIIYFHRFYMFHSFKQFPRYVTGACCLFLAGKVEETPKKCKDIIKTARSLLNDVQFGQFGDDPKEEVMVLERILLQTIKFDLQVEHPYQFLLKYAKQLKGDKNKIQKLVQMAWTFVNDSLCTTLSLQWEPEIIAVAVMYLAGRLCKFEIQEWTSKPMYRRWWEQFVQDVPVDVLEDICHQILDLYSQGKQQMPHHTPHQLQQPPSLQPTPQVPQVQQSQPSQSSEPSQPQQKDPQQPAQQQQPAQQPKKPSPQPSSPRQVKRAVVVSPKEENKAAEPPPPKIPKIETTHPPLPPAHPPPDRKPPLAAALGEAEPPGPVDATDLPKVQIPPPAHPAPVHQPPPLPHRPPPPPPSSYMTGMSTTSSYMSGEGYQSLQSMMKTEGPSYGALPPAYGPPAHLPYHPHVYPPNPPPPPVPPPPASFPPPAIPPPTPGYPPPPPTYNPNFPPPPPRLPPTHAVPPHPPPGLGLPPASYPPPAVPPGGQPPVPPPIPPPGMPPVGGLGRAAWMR
Measurement description: CDK12 nuclear protein level: immunofluorescence/high content analysis (CAL-120)
Assay type: cell-based
Cond: ratio of IC50 CDK12 high ATP kinase assay to DC50 CDK12 degradation (IF, CAL-120)

Any idea what (IC50 CDK12 high ATP) to (Degradation DC50 CDK12) ratio was measured for Brc1cnn2c(NCc3nc4ccccc4[nH]3)nc(N3CCC4(CCCN4)C3)nc12 (stereo not drawn) [Example 215] ?
>2537

Would you kindly share the measured (IC50 CDK12 high ATP) to (Degradation DC50 CDK12) ratio for CN[C@@H]1CCN(c2nc(NCc3nc4ccccc4[nH]3)n3ncc(Br)c3n2)C1 [Example 253] ?
>22856

Could you tell me which (IC50 CDK12 high ATP) to (Degradation DC50 CDK12) ratio is on file for CCNC1CCN(c2nc(NCc3nc4ccccc4[nH]3)n3ncc(Br)c3n2)CC1 [Example 300] ?
>1120

====

Test system: CAL-120, human breast adenocarcinoma cells
Measurement description: Proliferation assay CAL-120 (crystal violet, 4 days)
Format: cell-based
Cond: Homo sapiens, CAL-120, 96 h, CAL-120 cells, median, read-out: Prolif-CAL-120, IC50-[mol/l] (median)
For each entry below, report its pIC50 value.
Here pIC50 is given on a logarithmic scale as minus log10 of the concentration in mol/L.

Entry CN1C[C@@H]2C[C@H]1CN2c1nc(NCc2nc3ccccc3[nH]2)n2ncc(Br)c2n1 : reported pIC50 = ?
7.57

Would you kindly share the measured pIC50 for N[C@H]1[C@@H]2C[C@H]1CN(c1nc(NCc3nc4ccccc4[nH]3)n3ncc(Br)c3n1)C2 ?
8.74

Need pIC50, item OC[C@H]1CCCCN1c1nc(NCc2nnc(-c3ccccc3)[nH]2)n2ncc(Br)c2n1
7.49

Looking for the measured pIC50 of CN1CCN(c2nc(NCc3nc4c(F)c(F)ccc4[nH]3)n3ncc(-c4nccs4)c3n2)CC1 , can you help?
6.57

I am curious: what pIC50 value has been reported for FC(F)(F)Oc1ccccc1-c1nnc(CNc2nc(N3CCOCC3)nc3c(Br)cnn23)[nH]1 ?
6.51

====

Assayed target: CDK12/CycK (Homo sapiens, UniProt Q9NYV4)
Sequence (Q9NYV4 with tags, fused parts or gaps): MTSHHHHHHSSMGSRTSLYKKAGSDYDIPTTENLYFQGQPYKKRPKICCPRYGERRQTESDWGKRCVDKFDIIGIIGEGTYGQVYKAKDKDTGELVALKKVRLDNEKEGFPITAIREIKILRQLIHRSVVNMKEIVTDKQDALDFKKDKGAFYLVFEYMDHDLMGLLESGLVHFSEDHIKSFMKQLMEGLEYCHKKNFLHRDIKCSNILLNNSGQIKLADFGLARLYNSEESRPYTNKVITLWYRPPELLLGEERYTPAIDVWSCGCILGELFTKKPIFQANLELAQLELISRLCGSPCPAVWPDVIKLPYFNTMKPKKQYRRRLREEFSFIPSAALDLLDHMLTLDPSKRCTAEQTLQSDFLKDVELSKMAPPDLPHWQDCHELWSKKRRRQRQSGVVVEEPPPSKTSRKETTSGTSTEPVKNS
Sequence (O75909 1-300 partner limits assumed): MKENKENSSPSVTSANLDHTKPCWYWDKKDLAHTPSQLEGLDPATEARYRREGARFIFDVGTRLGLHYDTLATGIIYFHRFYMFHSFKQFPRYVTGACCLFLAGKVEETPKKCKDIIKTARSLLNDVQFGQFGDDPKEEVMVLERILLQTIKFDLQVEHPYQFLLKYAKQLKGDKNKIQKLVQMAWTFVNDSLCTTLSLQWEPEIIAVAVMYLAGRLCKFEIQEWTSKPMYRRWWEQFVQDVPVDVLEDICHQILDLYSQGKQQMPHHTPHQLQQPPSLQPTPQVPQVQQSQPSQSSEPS
Measurement description: CDK12/CycK high ATP kinase assay (TR-FRET, 2 mM ATP)
Cond: 2 mM ATP (high ATP); median; read-out: CDK12/CyclinK, 2 mM ATP (high ATP), IC50-[mol/l] (median)
Measured metric: pIC50
pIC50 field: float, defined as -log10 of concentration (mol/L).

Please look up its pIC50: Clc1ccc2[nH]c(CNc3nc(N4CCOCC4)nc4c(Br)cnn34)nc2c1
5.99

// lookup pIC50 for Brc1cnn2c(NCc3nc4ccccc4[nH]3)nc(N3C[C@H]4CC[C@@H]3CO4)nc12 (single isomer, unassigned; enantiomer 2) [Example 391]
5.17

What value of pIC50 has been recorded for this entry: Fc1ccc2[nH]c(CNc3nc(N4CCOCC4)nc4c(C5CC5(F)F)cnn34)nc2c1 (single isomer, unassigned) [Example 314]
5.00

Name the reported pIC50 value associated with the compound O[C@H]1C[C@@H](Nc2nc(NCc3nc4ccccc4[nH]3)n3ncc(Br)c3n2)C1
5.31
